- tested.on: PARP3 (Homo sapiens, UniProt Q9Y6F1)
- Sequence (Q9Y6F1 1-533): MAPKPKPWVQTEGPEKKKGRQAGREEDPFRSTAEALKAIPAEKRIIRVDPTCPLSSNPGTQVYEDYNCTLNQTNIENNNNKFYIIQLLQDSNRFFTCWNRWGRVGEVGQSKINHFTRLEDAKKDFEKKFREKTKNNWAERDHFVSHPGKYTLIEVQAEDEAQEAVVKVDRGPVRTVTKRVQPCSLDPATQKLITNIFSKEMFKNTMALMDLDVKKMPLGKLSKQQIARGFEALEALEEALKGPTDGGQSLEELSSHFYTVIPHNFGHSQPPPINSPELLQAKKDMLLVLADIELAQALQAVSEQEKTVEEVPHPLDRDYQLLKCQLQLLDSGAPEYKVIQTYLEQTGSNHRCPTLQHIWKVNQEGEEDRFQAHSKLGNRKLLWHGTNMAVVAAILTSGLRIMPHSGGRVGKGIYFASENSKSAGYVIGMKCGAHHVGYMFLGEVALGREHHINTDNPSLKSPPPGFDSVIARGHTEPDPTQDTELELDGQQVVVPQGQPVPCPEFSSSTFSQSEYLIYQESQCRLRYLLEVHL
pIC50: −log10 of the molar value.
recorded.endpoint: pIC50

Lookup: # input compound: CCOc1ccc(-c2nnc([C@H]3C[C@H](NC(=O)c4cccc5nccnc45)C3)n2-c2ccccc2F)nc1 ; wanted: its pIC50
Found: < 4.00
